# System: human IDO1 protein (Homo sapiens, UniProt P14902)
# Construct: purchased ChemPartner Lot; No. 20160706
# Sequence (P14902 whole entry): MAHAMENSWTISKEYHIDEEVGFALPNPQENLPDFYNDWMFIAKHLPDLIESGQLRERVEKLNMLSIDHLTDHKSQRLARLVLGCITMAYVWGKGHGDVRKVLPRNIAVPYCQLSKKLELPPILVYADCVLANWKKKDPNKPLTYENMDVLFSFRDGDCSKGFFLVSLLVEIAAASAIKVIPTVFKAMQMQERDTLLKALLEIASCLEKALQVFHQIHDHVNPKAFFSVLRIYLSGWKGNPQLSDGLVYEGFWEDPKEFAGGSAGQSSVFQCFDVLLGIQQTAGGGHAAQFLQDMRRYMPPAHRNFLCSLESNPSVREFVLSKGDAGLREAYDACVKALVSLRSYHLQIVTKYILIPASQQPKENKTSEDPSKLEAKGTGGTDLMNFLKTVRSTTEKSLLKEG
# Assay method text: Enzymatic IDO1 assay (Absorbance 321 assay)
# Assay type: biochemical
# Conditions used: background signal of the compound in the absorbance assay
Let's look at some compounds and their measured Background (%).
Use % as the unit, but write only the number.

Consider the reported Background (%) for these compounds:
| Compound | System | Reported result |
| --- | --- | --- |
| NNC(=O)c1ccc(COc2ccc3c(c2)CCC3)cc1 [DCI-040] | human IDO1 protein (Homo sapiens, UniProt P14902) | 31.86 |
| Cc1cc(=O)oc2cc(OCC(O)Cn3c(C)nc4ccccc43)ccc12 (stereo not drawn) [DCI-094] | human IDO1 protein (Homo sapiens, UniProt P14902) | 75.33 |
| O=C(CSc1ncnc2sc3c(c12)CCC3)Nc1ccccc1 [DCI-061] | human IDO1 protein (Homo sapiens, UniProt P14902) | 54.35 |

Entry O=c1c(-c2nc3ccccc3[nH]2)coc2cc(O)ccc12 [DCI-025] needs its Background (%) filled in; supply it.
66.83

Entry Cc1c(-c2ccccc2)nc(-c2ccccc2)[nH]c1=O [DCI-045] needs its Background (%) filled in; supply it.
39.40

----------
# System: IDO1 in HeLa cells (Homo sapiens, UniProt P14902)
# Construct: endogenous in cells
# Assay method text: HeLa cellular IDO1 assay (kynurenine OD 480 nm after IFN-γ)
# Conditions used: IDO1 inhibition in HeLa cells, 48 h
Let's look at some molecules and their measured IC50.
Use µM as the unit, but write only the number.

Consider the reported IC50 for these molecules:
| Molecule | Quantity unit | IC50 |
| --- | --- | --- |
| Cc1ccc(Cl)cc1N1COc2ccc3ccccc3c2C1 [DC-I02802] | µM | 56 |
| Cc1ccc([N+](=O)[O-])cc1N1COc2ccc3ccccc3c2C1 [DC-I02804] | µM | 98.4 |
| Clc1ccc(N2COc3ccc4ccccc4c3C2)cc1 [DC-I028] | µM | 89.1 |

Entry O=C(NC(=S)Nc1c(O)ccc2ccccc12)c1ccccc1Br [DC-I02808] needs its IC50 filled in; supply it.
46.4

Entry CCOc1cc(C(=O)NC(=S)Nc2c(O)ccc3ccccc23)cc(OCC)c1OCC [DC-I02806] needs its IC50 filled in; supply it.
18.2

----------
# System: human IDO1 protein (Homo sapiens, UniProt P14902)
# Construct: purchased ChemPartner Lot; No. 20160706
# Assay method text: Enzymatic IDO1 assay (Absorbance 321 assay)
# Type: biochemical
# Conditions used: background signal of the compound in the absorbance assay
I'd appreciate it if you marked entries T when Background (%) is lower than 50% and F when it is not.

Observe how each entry below is paired with its result.
| Compound | System | Assigned class |
| --- | --- | --- |
| CC(O)Cn1c(=O)c(=O)[nH]c2ccccc21 (stereo not shown) [DCI-051] | human IDO1 protein (Homo sapiens, UniProt P14902) | F |
| Cc1cccc(-c2nnc(SCC(=O)Nc3c(C)cc(C)cc3C)o2)c1 [DC-I102] | human IDO1 protein (Homo sapiens, UniProt P14902) | T |
| COc1ccc(C2C(C#N)=C(N)Oc3n[nH]c(-c4ccc(Cl)cc4)c32)cc1O (stereo not shown) [DCI-098] | human IDO1 protein (Homo sapiens, UniProt P14902) | T |

State whether 50% exceeds Background (%) recorded for O=C1c2ccccc2NC(c2cccc([N+](=O)[O-])c2)N1O (stereo not shown) [DCI-058] .
T

State whether 50% exceeds Background (%) recorded for Cn1c(=O)c([N+](=O)[O-])c(Nc2ccc(Cl)cc2)c2ccccc21 [DCI-066] .
F

State whether 50% exceeds Background (%) recorded for Cc1oc2ccc(O)cc2c1C(=O)c1ccc(Br)cc1 [DCI-057] .
F

State whether 50% exceeds Background (%) recorded for Cc1ccc(/C=N/Nc2nc3ccccc3[nH]c2=O)cc1 [DCI-023] .
F
